Taken from ChEMBL document CHEMBL1268847.

molecular target: Mitogen-activated protein kinase 1 (Homo sapiens, UniProt P28482); experiment: Inhibition of ERK2
Sequence (P28482 whole entry): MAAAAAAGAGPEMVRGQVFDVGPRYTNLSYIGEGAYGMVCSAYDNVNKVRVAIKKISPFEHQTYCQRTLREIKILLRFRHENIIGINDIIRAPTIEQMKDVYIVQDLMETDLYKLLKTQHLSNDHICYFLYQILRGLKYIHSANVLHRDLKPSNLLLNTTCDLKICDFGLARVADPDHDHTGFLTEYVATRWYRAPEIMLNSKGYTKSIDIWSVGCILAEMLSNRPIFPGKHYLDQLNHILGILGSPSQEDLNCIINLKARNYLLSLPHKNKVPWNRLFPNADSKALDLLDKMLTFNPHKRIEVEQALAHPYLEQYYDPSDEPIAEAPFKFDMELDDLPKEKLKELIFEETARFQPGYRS
pIC50: −log10 of the molar value.
assay-readout: pIC50

Please give the measured pIC50 for this compound: Cc1cn2c(-c3cn[nH]c3)cnc2c(Nc2cc([C@@H](C)N3C[C@@H](C)O[C@@H](C)C3)ns2)n1
< 8.00

---

biological target: UniProtKB P35968
Sequence (P35968 whole entry): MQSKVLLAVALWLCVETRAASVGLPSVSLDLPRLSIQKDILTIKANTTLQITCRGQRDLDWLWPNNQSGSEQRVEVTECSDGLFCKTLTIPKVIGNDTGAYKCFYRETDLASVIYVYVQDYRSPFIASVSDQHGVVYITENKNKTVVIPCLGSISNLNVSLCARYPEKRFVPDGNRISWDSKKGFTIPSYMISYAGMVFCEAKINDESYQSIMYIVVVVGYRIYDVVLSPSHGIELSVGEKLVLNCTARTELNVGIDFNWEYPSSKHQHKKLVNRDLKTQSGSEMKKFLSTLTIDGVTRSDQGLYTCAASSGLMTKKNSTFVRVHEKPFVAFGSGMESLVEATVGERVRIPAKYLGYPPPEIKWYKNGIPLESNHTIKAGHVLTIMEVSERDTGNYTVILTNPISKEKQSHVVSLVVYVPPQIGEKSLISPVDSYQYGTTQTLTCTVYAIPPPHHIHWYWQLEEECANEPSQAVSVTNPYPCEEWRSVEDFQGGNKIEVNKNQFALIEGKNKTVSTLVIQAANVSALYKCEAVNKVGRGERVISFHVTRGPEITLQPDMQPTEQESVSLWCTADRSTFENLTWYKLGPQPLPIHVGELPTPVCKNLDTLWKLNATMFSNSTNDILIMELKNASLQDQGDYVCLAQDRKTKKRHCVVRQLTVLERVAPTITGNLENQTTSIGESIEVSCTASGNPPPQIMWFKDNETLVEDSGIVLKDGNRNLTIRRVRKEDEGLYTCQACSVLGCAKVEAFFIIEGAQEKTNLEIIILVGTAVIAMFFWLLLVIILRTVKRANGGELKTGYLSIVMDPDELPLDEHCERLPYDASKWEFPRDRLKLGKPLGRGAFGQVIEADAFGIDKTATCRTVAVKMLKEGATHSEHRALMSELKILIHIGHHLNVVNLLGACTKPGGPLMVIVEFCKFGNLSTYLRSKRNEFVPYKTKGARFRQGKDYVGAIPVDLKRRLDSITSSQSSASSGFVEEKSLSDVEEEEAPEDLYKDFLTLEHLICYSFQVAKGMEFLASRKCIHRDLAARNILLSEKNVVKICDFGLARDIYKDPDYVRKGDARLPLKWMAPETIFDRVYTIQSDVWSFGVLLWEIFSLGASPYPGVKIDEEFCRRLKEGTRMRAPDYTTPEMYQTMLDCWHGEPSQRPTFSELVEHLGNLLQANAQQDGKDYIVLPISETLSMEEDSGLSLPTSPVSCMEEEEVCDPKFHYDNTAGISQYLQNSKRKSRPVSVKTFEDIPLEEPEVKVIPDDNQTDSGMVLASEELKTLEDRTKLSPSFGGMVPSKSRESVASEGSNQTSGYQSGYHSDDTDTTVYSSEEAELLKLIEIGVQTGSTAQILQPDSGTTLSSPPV
assay-readout: IC50 (nM)
Write down the numeric answer in nM and omit the unit.

Consider the compound shown here: Cc1cn2c(-c3cn[nH]c3)cnc2c(Nc2cc([C@@H](C)N3C[C@@H](C)O[C@@H](C)C3)ns2)n1 What is its recorded IC50?
710
